biological target: chimeric human RORγ-Gal4 receptor (Homo sapiens); test: transient transactivation assay (RORγ-Gal4 luciferase reporter); format: cell-based; conditions: Cos-7 cells transfected with RORγ-Gal4 and 5Gal4 pGL3 TK Luc reporter; overnight incubation; T0901317 at 10^-5 M as reference; read-out: IC50
Sequence (P51449 269-508 limits assumed, change not shown): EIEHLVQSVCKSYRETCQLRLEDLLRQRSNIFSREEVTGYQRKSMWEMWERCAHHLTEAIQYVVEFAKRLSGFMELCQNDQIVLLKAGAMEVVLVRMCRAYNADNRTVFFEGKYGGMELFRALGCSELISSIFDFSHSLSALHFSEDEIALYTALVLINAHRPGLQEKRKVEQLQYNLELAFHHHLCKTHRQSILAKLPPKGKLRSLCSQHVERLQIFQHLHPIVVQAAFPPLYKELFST
Listing of recorded IC50 by entry.

Worked examples follow.
[
  {
    "compound": "Cc1cc(C#N)nc2c1cc(Cc1c(Cl)ccc(C(=O)N3CCC(O)CC3)c1Cl)n2C [CL-1]",
    "assay-endpoint": "IC50",
    "reported": "< 100 nM"
  },
  {
    "compound": "Cc1c(C#N)ccc2c1cc(Cc1c(Cl)ccc(C(=O)N3CCOCC3)c1Cl)n2C [EX]",
    "assay-endpoint": "IC50",
    "reported": "< 100 nM"
  },
  {
    "compound": "Cc1ccc(C(=O)N2CCOCC2)c(C)c1C(O)c1cc2c(C)cc(C(F)(F)F)cc2n1C (stereo not shown) [K]",
    "assay-endpoint": "IC50",
    "reported": "100 to 500 nM"
  },
  {
    "compound": "Cc1cc(C(F)(F)F)nc2c1cc(Cc1c(Cl)ncc(C(=O)N3CCC(S(C)(=O)=O)CC3)c1Cl)n2C [Example GG]",
    "assay-endpoint": "IC50",
    "reported": "< 100 nM"
  },
  {
    "compound": "Cc1cc(OC(F)(F)F)cc2c1c(Cc1c(Cl)ccc(C(=O)N3CCC(C(=O)O)C(C)C3)c1Cl)cn2C (stereo not shown) [DU1-2]",
    "assay-endpoint": "IC50",
    "reported": "< 100 nM"
  }
]

We next turn to a different compound, shown below.
Annotate the compound Cc1cc(C(F)(F)F)cc2c1cc(Cc1c(Cl)ccc(C(=O)N3CCN(C(C)(C)C(=O)O)CC3)c1Cl)n2C [Example T] with its measured IC50.
100 to 500 nM

---

biological target: chimeric human RORγ-Gal4 receptor (Homo sapiens); experiment: transient transactivation assay (RORγ-Gal4 luciferase reporter); type: cell-based; conditions: Cos-7 cells transfected with RORγ-Gal4 and 5Gal4 pGL3 TK Luc reporter; overnight incubation; T0901317 at 10^-5 M as reference; read-out: IC50
pIC50: −log10 of the molar value.
assay-endpoint: pIC50

[
  {
    "compound": "Cc1cc(C(F)(F)F)cc2c1nc(Cc1c(Cl)ccc(C(=O)N3CCN(C)C(C)C3)c1Cl)n2C (stereo not shown)",
    "pIC50": "5.00 to 6.00"
  },
  {
    "compound": "Cc1cc(C(F)(F)F)cc2c1nc(Cc1c(Cl)ccc(C(=O)N3CCC(CC(=O)O)CC3)c1Cl)n2C",
    "pIC50": "> 7.00"
  },
  {
    "compound": "Cc1cc(C(F)(F)F)cc2c1cc(Cc1c(Cl)ccc(C(=O)N3CCC(OCC(=O)O)CC3)c1Cl)n2C",
    "pIC50": "> 7.00"
  },
  {
    "compound": "Cc1cc(C(F)(F)F)cc2c1nc(Cc1c(Cl)ccc(CN3CCCC(C)(O)C3)c1Cl)n2C (stereo not shown)",
    "pIC50": "6.30 to 7.00"
  },
  {
    "compound": "Cc1cc(C(F)(F)F)nn2c(C)c(Cc3c(Cl)ccc(C(=O)N4CCN(S(C)(=O)=O)[C@H](C)C4)c3Cl)nc12",
    "pIC50": "6.30 to 7.00"
  },
  {
    "compound": "Cc1cn(C(=O)c2c(Cl)ncc(C(=O)N3CCC(CC(=O)O)CC3)c2Cl)c2c(C)cc(C(F)(F)F)cc12",
    "pIC50": "> 7.00"
  },
  {
    "compound": "Cc1cc(C(F)(F)F)cc2c1cc(Cc1c(Cl)ncc(C(=O)N3CCOCC3)c1Cl)n2C",
    "pIC50": "> 7.00"
  },
  {
    "compound": "COC1CCN(C(=O)c2ccc(Cl)c(Cc3nc4c(C)cc(C(F)(F)F)cn4c3C)c2Cl)CC1",
    "pIC50": "> 7.00"
  }
]

Check chimeric human RORγ-Gal4 receptor (Homo sapiens) data and give pIC50 for Cc1cc(C(F)(F)F)cc2c1cc(Cc1c(Cl)ccc(C(=O)N3CCN(C4COC4)CC3)c1Cl)n2C .
> 7.00

Check chimeric human RORγ-Gal4 receptor (Homo sapiens) data and give pIC50 for Cc1cc(C#N)cc2c1cc(C(=O)c1c(Cl)ccc(C(=O)N3CCC(O)CC3)c1Cl)n2C .
> 7.00

Check chimeric human RORγ-Gal4 receptor (Homo sapiens) data and give pIC50 for COCCC1CCN(C(=O)c2ccc(Cl)c(Cc3nc4c(C)cc(C#N)cc4n3C)c2Cl)CC1 .
6.30 to 7.00

Check chimeric human RORγ-Gal4 receptor (Homo sapiens) data and give pIC50 for Cc1cc(C#N)cc2c1cc(Cc1c(Cl)ccc(C(=O)N3CCCC(O)C3)c1Cl)n2C (stereo not shown) .
6.30 to 7.00

Check chimeric human RORγ-Gal4 receptor (Homo sapiens) data and give pIC50 for Cc1cc(C(F)(F)F)cc2c1cc(Cc1c(Cl)ccc(C(=O)N3CCC(C(O)C(=O)O)CC3)c1Cl)n2C (stereo not shown) .
> 7.00

Check chimeric human RORγ-Gal4 receptor (Homo sapiens) data and give pIC50 for Cc1cc2nc(Cc3c(Cl)ccc(C(=O)N4CCOCC4)c3Cl)c(C)n2nc1C#N .
5.00 to 6.00

Check chimeric human RORγ-Gal4 receptor (Homo sapiens) data and give pIC50 for Cc1cc(C#N)cc2c1cc(Cc1c(Cl)ccc(C(=O)N3CCN(C)C(C)C3)c1Cl)n2C (stereo not shown) .
6.30 to 7.00

Check chimeric human RORγ-Gal4 receptor (Homo sapiens) data and give pIC50 for Cc1ncc(C(=O)N2CCOCC2)c(C)c1Cc1cc2c(C)cc(C(F)(F)F)cc2n1C .
6.00 to 6.30

---

target: chimeric human RORγ-Gal4 receptor (Homo sapiens); assay: transient transactivation assay (RORγ-Gal4 luciferase reporter); assay type: cell-based; settings: Cos-7 cells transfected with RORγ-Gal4 and 5Gal4 pGL3 TK Luc reporter; overnight incubation; T0901317 at 10^-5 M as reference; read-out: IC50
pIC50: −log10 of the molar value.
assay-endpoint: pIC50

Worked examples follow.
[
  {
    "compound": "Cn1c(Cc2c(Cl)ccc(C(=O)N3CCC(C(=O)O)CC3)c2Cl)cc2ccc(C(F)(F)F)cc21",
    "assay-target": "chimeric human RORγ-Gal4 receptor (Homo sapiens)",
    "pIC50": "6.30 to 7.00"
  },
  {
    "compound": "Cc1cc(C(F)(F)F)cc2c1c(Cc1c(Cl)ncc(C(=O)N3CCC(CC(=O)O)CC3)c1Cl)cn2C",
    "assay-target": "chimeric human RORγ-Gal4 receptor (Homo sapiens)",
    "pIC50": "> 7.00"
  },
  {
    "compound": "Cc1cc(C(F)(F)F)cc2c1cc(C(=O)c1c(Cl)ccc(C(=O)N3C[C@@H]4[C@H](C3)[C@H]4C(=O)O)c1Cl)n2C",
    "assay-target": "chimeric human RORγ-Gal4 receptor (Homo sapiens)",
    "pIC50": "6.30 to 7.00"
  },
  {
    "compound": "Cc1cc(C#N)cc2c1cc(Cc1c(Cl)ccc(O[C@H]3CC[C@@H](C(=O)O)C3)c1Cl)n2C (relative stereo)",
    "assay-target": "chimeric human RORγ-Gal4 receptor (Homo sapiens)",
    "pIC50": "6.00 to 6.30"
  },
  {
    "compound": "Cc1cc(C(F)(F)F)nc2c1cc(C(=O)c1c(Cl)ccc(C(=O)N3CCC(O)CC3)c1Cl)n2C",
    "assay-target": "chimeric human RORγ-Gal4 receptor (Homo sapiens)",
    "pIC50": "> 7.00"
  },
  {
    "compound": "Cn1c(Cc2c(Cl)ccc(C(=O)N3CCOCC3)c2Cl)nc2c(C(F)(F)F)cc(Br)cc21",
    "assay-target": "chimeric human RORγ-Gal4 receptor (Homo sapiens)",
    "pIC50": "6.30 to 7.00"
  },
  {
    "compound": "Cc1cc(C(F)(F)F)cc2c1nc(Cc1c(Cl)ccc(CN3CCC(CO)CC3)c1Cl)n2C",
    "assay-target": "chimeric human RORγ-Gal4 receptor (Homo sapiens)",
    "pIC50": "6.30 to 7.00"
  },
  {
    "compound": "Cc1cc(C#N)cc2c1cc(Cc1c(Cl)ccc(C(=O)N3CC(O)C3)c1Cl)n2C",
    "assay-target": "chimeric human RORγ-Gal4 receptor (Homo sapiens)",
    "pIC50": "6.30 to 7.00"
  },
  {
    "compound": "Cc1cc(C(F)(F)F)cc2c1nc(Cc1c(Cl)ccc(C(=O)N3CCC(C(C)(C)O)CC3)c1Cl)n2C",
    "assay-target": "chimeric human RORγ-Gal4 receptor (Homo sapiens)",
    "pIC50": "6.30 to 7.00"
  },
  {
    "compound": "CCn1c(Cc2c(Cl)ccc(C(=O)N3CCOCC3)c2Cl)nc2c(C)cc(C#N)cc21",
    "assay-target": "chimeric human RORγ-Gal4 receptor (Homo sapiens)",
    "pIC50": "6.00 to 6.30"
  }
]

Check chimeric human RORγ-Gal4 receptor (Homo sapiens) data and give pIC50 for Cc1cc(C(F)(F)F)cc2c1cc(Cc1c(Cl)ccc(C(=O)N3CC4(CC(CC(=O)O)C4)C3)c1Cl)n2C .
> 7.00

Check chimeric human RORγ-Gal4 receptor (Homo sapiens) data and give pIC50 for Cn1c(Cc2c(Cl)ncc(C(=O)N3CCC(CC(=O)O)CC3)c2Cl)cc2c(F)cc(C3CC3)cc21 .
> 7.00

Check chimeric human RORγ-Gal4 receptor (Homo sapiens) data and give pIC50 for Cc1cc(C(F)(F)F)nn2c(C)c(C(=O)c3c(Cl)ccc(C(=O)N4CCC(CC(=O)O)CC4)c3Cl)nc12 .
6.30 to 7.00

Check chimeric human RORγ-Gal4 receptor (Homo sapiens) data and give pIC50 for Cc1cc(C#N)cc2c1cc(Cc1c(Cl)ncc(C(=O)N3CCC(C4COC4)CC3)c1Cl)n2C .
> 7.00

Check chimeric human RORγ-Gal4 receptor (Homo sapiens) data and give pIC50 for Cc1cc(C#N)cc2c1cc(Cc1c(Cl)ccc(C(=O)N3CCC4(CC3)COC4)c1Cl)n2C .
6.30 to 7.00

Check chimeric human RORγ-Gal4 receptor (Homo sapiens) data and give pIC50 for COCCC1CCN(C(=O)c2ccc(Cl)c(Cc3nc4c(C)cc(C(F)(F)F)cn4c3C)c2Cl)CC1 .
> 7.00
